Test system: NCI-H522
ASSAY_TEXT: Growth inhibition of human NCI-H522 cells incubated for 48 hrs by sulforhodamine B assay
Format: functional
EXPERIMENTAL_ENDPOINT: GI50 (nM)
Write it as a number; the unit nM goes unstated.

{"SMILES": "COc1cc2nc(-c3ccc(Cl)cc3)cc(OCCCN3CCCC3)c2cc1OC", "UNIT_SYMBOL": "nM", "GI50": 2360}
{"SMILES": "COc1cc2nc(-c3ccc(Cl)cc3)cc(OCCCN3CCCCC3)c2cc1OC", "UNIT_SYMBOL": "nM", "GI50": 3280}
{"SMILES": "COc1cc2nc(-c3ccc(C(F)(F)F)cc3)cc(OCCCN3CCOCC3)c2cc1OC", "UNIT_SYMBOL": "nM", "GI50": 2520}

*Q* Look up GI50 for this molecule: COc1cc2nc(-c3ccc(Cl)cc3)cc(OCCCN3CCOCC3)c2cc1OC
*A* 2170

*Q* Look up GI50 for this molecule: COc1cc2nc(-c3ccc(C(F)(F)F)cc3)cc(OCCCN3CCCC3)c2cc1OC
*A* 1740

*Q* Look up GI50 for this molecule: COc1cc2nc(-c3ccc(Cl)cc3)cc(OCCCN3CCC(O)CC3)c2cc1OC
*A* 2190

*Q* Look up GI50 for this molecule: COc1cc2nc(-c3ccc(C(F)(F)F)cc3)cc(OCCCN3CCC(O)CC3)c2cc1OC
*A* 4150

*Q* Look up GI50 for this molecule: COc1cc2nc(-c3ccc(C(F)(F)F)cc3)cc(OCCCN3CCCCC3)c2cc1OC
*A* 2440

* * *

Tested on: SK-OV-3
ASSAY_TEXT: Growth inhibition of human SK-OV-3 cells at 10 uM incubated for 48 hrs by sulforhodamine B assay relative to control
Type: functional
SETTINGS: read-out: GI
EXPERIMENTAL_ENDPOINT: inhibition of growth at 10 µM (%)
Write it as a number; the unit % goes unstated.

Known results for compounds:
{"SMILES": "COc1cc2nc(-c3ccc(Cl)cc3)cc(OCCCN3CCC(O)CC3)c2cc1OC", "inhibition of growth at 10 µM (%)": 62}
{"SMILES": "COc1cc2nc(-c3cccs3)cc(OCCCN3CCC(O)CC3)c2cc1OC", "inhibition of growth at 10 µM (%)": 20}
{"SMILES": "COc1cc2nc(-c3ccc(Cl)cc3)cc(OCCCN3CCOCC3)c2cc1OC", "inhibition of growth at 10 µM (%)": 62}
{"SMILES": "COc1cc2nc(-c3ccsc3)cc(OCCCN3CCC(O)CC3)c2cc1OC", "inhibition of growth at 10 µM (%)": 32}

Moving on to another compound below.
*Q* Look up inhibition of growth at 10 µM for this compound: COc1cc2nc(-c3ccc(C(F)(F)F)cc3)cc(OCCN3CCCCC3)c2cc1OC
*A* 13

* * *

Test system: UO-31
ASSAY_TEXT: Growth inhibition of human UO-31 cells incubated for 48 hrs by sulforhodamine B assay
Type: functional
EXPERIMENTAL_ENDPOINT: GI50 (nM)
Write it as a number; the unit nM goes unstated.

{"SMILES": "COc1cc2nc(-c3ccc(C(F)(F)F)cc3)cc(OCCCN3CCCCC3)c2cc1OC", "UNIT_SYMBOL": "nM", "ENDPOINT_VALUE": 2000}

*Q* Give the reported GI50 for COc1cc2nc(-c3ccc(Cl)cc3)cc(OCCCN3CCOCC3)c2cc1OC (system: UO-31).
*A* 1780

*Q* Give the reported GI50 for COc1cc2nc(-c3ccc(Cl)cc3)cc(OCCCN3CCCC3)c2cc1OC (system: UO-31).
*A* 1720
